Source listed as the supplement of paper PMC11061612.

Tested on: SW1463 (Colorectal Carcinoma)
MEASUREMENT NOTES: Bliss excess, mean over the matrix (fraction); higher = more synergy
I'd appreciate it if you could supply Bliss excess values for the items below.
Give bare numbers.

COc1nnc2ccc(N3CCC(c4ccc(OCCN5CCN(C)C(=O)[C@H]5C)cc4)CC3)nn12 [AZD5153] + C=CCn1c(=O)c2cnc(Nc3ccc(N4CCN(C)CC4)cc3)nc2n1-c1cccc(C(C)(C)O)n1 [AZD1775] (first compound max 1 µM, partner max 1 µM)	-0.101

Now take the following compound into account.
[in] Recorded Bliss excess of NC1(C(=O)N[C@@H](CCO)c2ccc(Cl)cc2)CCN(c2ncnc3[nH]ccc23)CC1 [Capivasertib] + CCN(CCO)CCCOc1ccc2c(Nc3cc(CC(=O)Nc4cccc(F)c4)[nH]n3)ncnc2c1 [AZD2811] (first compound max 10 µM, 7x7, partner max 1 µM) , please.
[out] -0.0239

---

For each entry below, report its combination Emax value.
Tested on: NCI-H2452 (Mesothelioma)
MEASUREMENT NOTES: combination Emax (second highest fraction inhibited in the dose matrix, 72 h); higher = more inhibition; extreme values may be limits of the assay

Below, each entry is followed by its recorded combination Emax result.
C=CCn1c(=O)c2cnc(Nc3ccc(N4CCN(C)CC4)cc3)nc2n1-c1cccc(C(C)(C)O)n1 [AZD1775] + CCc1c2c(nc3ccc(O)cc13)-c1cc3c(c(=O)n1C2)COC(=O)[C@]3(O)CC [SN-38] (first compound max 1 µM, partner max 0.3 µM)	0.675
Cc1c2c(nn1C)CSCc1cc(n(C)n1)CSc1cc(c3ccccc3c1)OCCCc1c(C(=O)O)n(C)c3c-2c(Cl)ccc13 [AZD5991] + Cn1cnc2c(F)c(Nc3ccc(Br)cc3Cl)c(C(=O)NOCCO)cc21 [Selumetinib] (first compound max 1 µM, 7x7, partner max 3 µM)	0.32

I need combination Emax for every entry listed below, if you could help.
1. COc1nnc2ccc(N3CCC(c4ccc(OCCN5CCN(C)C(=O)[C@H]5C)cc4)CC3)nn12 [AZD5153] + C=CCn1c(=O)c2cnc(Nc3ccc(N4CCN(C)CC4)cc3)nc2n1-c1cccc(C(C)(C)O)n1 [AZD1775] (first compound max 1 µM, partner max 1 µM)
2. COc1cccc(OCCCN)c1-c1cc(Nc2cnc(C#N)cn2)n[nH]1 [Prexasertib] + C=CCn1c(=O)c2cnc(Nc3ccc(N4CCN(C)CC4)cc3)nc2n1-c1cccc(C(C)(C)O)n1 [AZD1775] (first compound max 1 µM, partner max 1 µM)

[out]
1. 0.605
2. 0.832

---

Tested on: JURL-MK1 (Chronic Myelogenous Leukemia)
MEASUREMENT NOTES: Bliss excess, mean over the matrix (fraction); higher = more synergy
Give Bliss excess for every item shown.
Answers are plain numbers.

Cc1c2c(nn1C)CSCc1cc(n(C)n1)CSc1cc(c3ccccc3c1)OCCCc1c(C(=O)O)n(C)c3c-2c(Cl)ccc13 [AZD5991] + CCN(CCO)CCCOc1ccc2c(Nc3cc(CC(=O)Nc4cccc(F)c4)[nH]n3)ncnc2c1 [AZD2811] (first compound max 1 µM, 7x7, partner max 1 µM)	0.098
COc1cccc(OCCCN)c1-c1cc(Nc2cnc(C#N)cn2)n[nH]1 [Prexasertib] + CN(C)CCCOc1ccc(-c2ccc3ncc4c(c3c2)n(C2CCOCC2)c(=O)n4C)cn1 [AZD0156] (first compound max 1 µM, 7x7, partner max 1 µM)	0.0231
Cn1cnc2c(F)c(Nc3ccc(Br)cc3Cl)c(C(=O)NOCCO)cc21 [Selumetinib] + C=CCn1c(=O)c2cnc(Nc3ccc(N4CCN(C)CC4)cc3)nc2n1-c1cccc(C(C)(C)O)n1 [AZD1775] (first compound max 10 µM, partner max 1 µM)	0.0067
CN(C)CCCOc1ccc(-c2ccc3ncc4c(c3c2)n(C2CCOCC2)c(=O)n4C)cn1 [AZD0156] + C[C@@H]1COCCN1C2=NC(=NC(=C2)C3(CC3)[S@](=N)(=O)C)C4=C5C=CNC5=NC=C4 [AZD6738] (first compound max 1 µM, 7x7, partner max 10 µM)	0.0269
CC(=O)c1c(C)c2cnc(Nc3ccc(N4CCNCC4)cn3)nc2n(C2CCCC2)c1=O [Palbociclib] + Cn1cnc2c(F)c(Nc3ccc(Br)cc3Cl)c(C(=O)NOCCO)cc21 [Selumetinib] (first compound max 10 µM, 7x7, partner max 10 µM)	0.0361
NC1(C(=O)N[C@@H](CCO)c2ccc(Cl)cc2)CCN(c2ncnc3[nH]ccc23)CC1 [Capivasertib] + CC(C)n1c(=O)n(C)c2cnc3cc(F)c(-c4ccc(OCCCN5CCCCC5)nc4)cc3c21 [AZD1390] (first compound max 10 µM, 7x7, partner max 0.3 µM)	-0.0489
CC(=O)c1c(C)c2cnc(Nc3ccc(N4CCNCC4)cn3)nc2n(C2CCCC2)c1=O [Palbociclib] + Cc1c2c(nn1C)CSCc1cc(n(C)n1)CSc1cc(c3ccccc3c1)OCCCc1c(C(=O)O)n(C)c3c-2c(Cl)ccc13 [AZD5991] (first compound max 10 µM, 7x7, partner max 1 µM)	-0.112
C=CCn1c(=O)c2cnc(Nc3ccc(N4CCN(C)CC4)cc3)nc2n1-c1cccc(C(C)(C)O)n1 [AZD1775] + O=C(c1cc(Cc2n[nH]c(=O)c3ccccc23)ccc1F)N1CCN(C(=O)C2CC2)CC1 [Olaparib] (first compound max 1 µM, partner max 10 µM)	0.001

I need Bliss excess for every entry listed below, if you could help.
1. COc1nnc2ccc(N3CCC(c4ccc(OCCN5CCN(C)C(=O)[C@H]5C)cc4)CC3)nn12 [AZD5153] + CN(CC[C@H](CSC1=CC=CC=C1)NC2=C(C=C(C=C2)S(=O)(=O)NC(=O)C3=CC=C(C=C3)N4CCC(CC4)[C@H](C5=CC=CC=C5C6=CC=C(C=C6)Cl)O)S(=O)(=O)C(F)(F)F)CCO [AZD4320] (first compound max 1 µM, 7x7, partner max 1 µM)
2. NC1(C(=O)N[C@@H](CCO)c2ccc(Cl)cc2)CCN(c2ncnc3[nH]ccc23)CC1 [Capivasertib] + Cn1cnc2c(F)c(Nc3ccc(Br)cc3Cl)c(C(=O)NOCCO)cc21 [Selumetinib] (first compound max 10 µM, 7x7, partner max 10 µM)
3. CC1(C)CCC(CN2CCN(c3ccc(C(=O)NS(=O)(=O)c4ccc(NCC5CCOCC5)c([N+](=O)[O-])c4)c(Oc4cnc5[nH]ccc5c4)c3)CC2)=C(c2ccc(Cl)cc2)C1 [Venetoclax] + CCN(CCO)CCCOc1ccc2c(Nc3cc(CC(=O)Nc4cccc(F)c4)[nH]n3)ncnc2c1 [AZD2811] (first compound max 1 µM, 7x7, partner max 1 µM)
4. COc1nnc2ccc(N3CCC(c4ccc(OCCN5CCN(C)C(=O)[C@H]5C)cc4)CC3)nn12 [AZD5153] + CC1(C)CCC(CN2CCN(c3ccc(C(=O)NS(=O)(=O)c4ccc(NCC5CCOCC5)c([N+](=O)[O-])c4)c(Oc4cnc5[nH]ccc5c4)c3)CC2)=C(c2ccc(Cl)cc2)C1 [Venetoclax] (first compound max 1 µM, 7x7, partner max 1 µM)
5. CN(CCO)CC[C@H](CSc1ccccc1)Nc1ccc(S(=O)(=O)NC(=O)c2ccc(N3CCC([C@@H](O)c4ccccc4-c4ccc(Cl)cc4)CC3)cc2)cc1S(=O)(=O)C(F)(F)F [AZD4320] + C=CCn1c(=O)c2cnc(Nc3ccc(N4CCN(C)CC4)cc3)nc2n1-c1cccc(C(C)(C)O)n1 [AZD1775] (first compound max 1 µM, partner max 1 µM)

[out]
1. -0.0137
2. 0.0263
3. 0.0208
4. -0.0676
5. 0.0098
